Taken from paper PMC5700166.

Biological target: GST-Co-NF-kB (Capsaspora owczarzaki, UniProt F1ARL5 200-546)
Sequence: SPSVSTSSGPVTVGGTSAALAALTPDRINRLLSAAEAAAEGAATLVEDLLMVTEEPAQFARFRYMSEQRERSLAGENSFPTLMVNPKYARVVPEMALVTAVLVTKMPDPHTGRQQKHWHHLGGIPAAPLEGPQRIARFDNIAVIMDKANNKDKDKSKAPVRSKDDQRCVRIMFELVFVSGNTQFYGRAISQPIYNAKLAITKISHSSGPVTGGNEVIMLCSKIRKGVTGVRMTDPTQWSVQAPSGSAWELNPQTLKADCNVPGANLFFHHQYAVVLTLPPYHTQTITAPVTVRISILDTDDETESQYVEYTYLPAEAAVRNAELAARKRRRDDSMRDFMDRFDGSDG
Assay: protein-binding microarray (PBM); PBM: ~300 nM protein, 6 mM HEPES pH 7.8, 80 mM KCl, 0.5 mM EDTA, 0.5 mM EGTA, 6% glycerol, 35 ng/ul poly-dIdC, 1% milk, 1 h, room temperature; Ap Aiptasia and Nv Nematostella (sea anemones) / Co Capsaspora / Aq Amphimedon (sponge) / Dm Drosophila / Hu human; RHD is the Rel homology domain; high values mean tight binding
Conditions: dsDNA, one strand shown
observation type: binding signal (z-score)

{"record sequence": "CCGATTAACATCAGCAAATTCCCTGATGTTAATCGGGTCTTGATTCGCTTGACGCTGCTG", "measured target": "GST-Co-NF-kB (Capsaspora owczarzaki, UniProt F1ARL5 200-546)", "measured": 2.77}
{"record sequence": "CCGATTAACATCAGGGAAAAGAATGATGTTAATCGGGTCTTGATTCGCTTGACGCTGCTG", "measured target": "GST-Co-NF-kB (Capsaspora owczarzaki, UniProt F1ARL5 200-546)", "measured": 2.97}
{"record sequence": "CCGATTAACATCAGGGATACCCCTGATGTTAATCGGGTCTTGATTCGCTTGACGCTGCTG", "measured target": "GST-Co-NF-kB (Capsaspora owczarzaki, UniProt F1ARL5 200-546)", "measured": 4}
{"record sequence": "CCGATTAACATCAAATTCCCAGATGATGTTAATCGGGTCTTGATTCGCTTGACGCTGCTG", "measured target": "GST-Co-NF-kB (Capsaspora owczarzaki, UniProt F1ARL5 200-546)", "measured": 3.87}
{"record sequence": "CCGATTAACATCAGGGACACCCCTGATGTTAATCGGGTCTTGATTCGCTTGACGCTGCTG", "measured target": "GST-Co-NF-kB (Capsaspora owczarzaki, UniProt F1ARL5 200-546)", "measured": 3.39}
{"record sequence": "CCGATTAACATCAGGATTTACCCTGATGTTAATCGGGTCTTGATTCGCTTGACGCTGCTG", "measured target": "GST-Co-NF-kB (Capsaspora owczarzaki, UniProt F1ARL5 200-546)", "measured": 1.85}
{"record sequence": "CCGATTAACATCAAAACACCCCCTGATGTTAATCGGGTCTTGATTCGCTTGACGCTGCTG", "measured target": "GST-Co-NF-kB (Capsaspora owczarzaki, UniProt F1ARL5 200-546)", "measured": 5.54}
{"record sequence": "CCGATTAACATCAAATGTTCCCCTGATGTTAATCGGGTCTTGATTCGCTTGACGCTGCTG", "measured target": "GST-Co-NF-kB (Capsaspora owczarzaki, UniProt F1ARL5 200-546)", "measured": 9.87}
{"record sequence": "CCGATTAACATCAAAAACCCCCGTGATGTTAATCGGGTCTTGATTCGCTTGACGCTGCTG", "measured target": "GST-Co-NF-kB (Capsaspora owczarzaki, UniProt F1ARL5 200-546)", "measured": 4.41}
